Reference for the values: patent US4213994A

system: serum lipid level; experiment: Standard test on a male rat with normal serum lipid level (hypolipidemic action, 8 peroral administrations); type: in vivo; conditions: Rattus norvegicus, po, 192 h; 100 mg/kg/day p.o., 8 administrations; value before the oblique stroke (anterior value = 100%); read-out: % change of Serum-triglycerides, after treatment vs starting value before treatment
Exercise: for every item that follows, state its recorded change in vivo at 100 mg/kg.
Give bare numbers, in %.

OC1(c2nccn2Cc2ccccc2)c2ccccc2-c2ccccc21 [Example 4, 9-[1-Benzylimidazolyl-(2)]-fluorene-9-ol]
-48

For each of the items listed, what is its change in vivo at 100 mg/kg?
1. CC(C)n1ccnc1C(C)(O)c1ccc(Cl)cc1 (centres unmarked)
2. OC(c1ccccc1)(c1ncc[nH]1)c1ncc[nH]1 [Example 7, Bis-[imidazolyl-(2)]-phenyl-carbinol]

[-39, -18]

For each of the items listed, what is its change in vivo at 100 mg/kg?
1. Cn1c(C(O)c2nccn2Cc2ccccc2)nc2ccccc21 (centres unmarked)
2. COc1ccc(C(O)c2nccn2-c2ccccc2)cc1OC (centres unmarked)

1: -40; 2: -32
